# tested target: Prostaglandin G/H synthase 1 (Homo sapiens, UniProt P23219)
# Sequence (P23219 whole entry): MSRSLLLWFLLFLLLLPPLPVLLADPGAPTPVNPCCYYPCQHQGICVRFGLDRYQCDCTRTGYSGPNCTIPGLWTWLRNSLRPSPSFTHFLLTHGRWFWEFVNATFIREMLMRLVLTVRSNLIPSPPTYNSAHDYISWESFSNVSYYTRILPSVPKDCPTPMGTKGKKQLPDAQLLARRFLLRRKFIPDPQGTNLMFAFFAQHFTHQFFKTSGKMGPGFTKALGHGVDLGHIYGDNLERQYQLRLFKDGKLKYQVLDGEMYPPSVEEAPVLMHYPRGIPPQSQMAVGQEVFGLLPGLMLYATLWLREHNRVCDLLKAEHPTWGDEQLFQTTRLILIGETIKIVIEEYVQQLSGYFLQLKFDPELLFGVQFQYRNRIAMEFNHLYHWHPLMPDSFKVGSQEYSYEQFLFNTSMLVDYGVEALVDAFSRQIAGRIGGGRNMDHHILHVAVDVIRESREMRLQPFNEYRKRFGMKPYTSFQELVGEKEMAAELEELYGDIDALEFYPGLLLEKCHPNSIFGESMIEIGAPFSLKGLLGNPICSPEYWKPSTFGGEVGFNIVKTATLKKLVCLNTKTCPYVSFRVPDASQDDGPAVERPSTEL
# assay method text: Inhibition of human recombinant COX1 assessed as decrease in prostaglandin production using arachidonic acid as substrate pretreated for 15 mins followed by substrate addition and measured after 2 mins by enzyme immunoassay
pIC50: −log10 of the molar value.

{"columns": ["molecule", "pIC50"],
 "data": [
  ["NC(=S)n1nc(-c2ccccc2)cc1-c1cn(-c2ccccc2)nc1-c1ccc(OCc2ccccc2)cc1", 5.28],
  ["Nc1nc(-c2ccccc2)cc(-c2cn(-c3ccccc3)nc2-c2ccc(OCc3ccccc3)cc2)n1", 4.78],
  ["Nc1nc(-c2ccc(Cl)cc2)cc(-c2cn(-c3ccccc3)nc2-c2ccc(OCc3ccccc3)cc2)n1", 6.22],
  ["O=C(/C=C/c1cn(-c2ccccc2)nc1-c1ccc(OCc2ccccc2)cc1)c1ccccc1", 4.81],
  ["N#CC1=C(N)OC(c2ccc(Cl)cc2)=CC1c1cn(-c2ccccc2)nc1-c1ccc(OCc2ccccc2)cc1 (stereo not drawn)", 5.01],
  ["S=c1nc(-c2ccc(Cl)cc2)cc(-c2cn(-c3ccccc3)nc2-c2ccc(OCc3ccccc3)cc2)[nH]1", 5.14],
  ["c1ccc(COc2ccc(-c3nn(-c4ccccc4)cc3-c3cc(-c4ccccc4)no3)cc2)cc1", 5.02],
  ["NC(=S)n1nc(-c2ccc(Cl)cc2)cc1-c1cn(-c2ccccc2)nc1-c1ccc(OCc2ccccc2)cc1", 5.22]
]}

Hey, just so you know, these numbers are from ChEMBL document CHEMBL4373665.
